Test system: MCF7
procedure-text: Selectivity factor, ratio of IC50 for human MRC5 cells to IC50 for human MCF7 cells
readout-type: Ratio IC50

[
  {
    "cpd-smiles": "COc1cccc2cc(N=[N+]=[N-])c(=O)oc12",
    "readout-type": "Ratio IC50",
    "test-value": 1.85
  },
  {
    "cpd-smiles": "[N-]=[N+]=Nc1cc2ccccc2oc1=O",
    "readout-type": "Ratio IC50",
    "test-value": 2.63
  },
  {
    "cpd-smiles": "[N-]=[N+]=Nc1cc2cc(Cl)cc(Cl)c2oc1=O",
    "readout-type": "Ratio IC50",
    "test-value": 3.6
  },
  {
    "cpd-smiles": "NCCC(=O)N1Cc2ccccc2-c2nnn(-c3cc4cc(Br)ccc4oc3=O)c2-c2ccccc21",
    "readout-type": "Ratio IC50",
    "test-value": 9.4
  },
  {
    "cpd-smiles": "COc1cccc2cc(-n3nnc4c3-c3ccccc3N(C(=O)CCN)Cc3ccccc3-4)c(=O)oc12",
    "readout-type": "Ratio IC50",
    "test-value": 4.24
  },
  {
    "cpd-smiles": "[N-]=[N+]=Nc1cc2ccc(O)cc2oc1=O",
    "readout-type": "Ratio IC50",
    "test-value": 1.63
  },
  {
    "cpd-smiles": "[N-]=[N+]=Nc1cc2cc(Br)ccc2oc1=O",
    "readout-type": "Ratio IC50",
    "test-value": 2.97
  },
  {
    "cpd-smiles": "NCCC(=O)N1Cc2ccccc2-c2nnn(-c3cc4ccccc4oc3=O)c2-c2ccccc21",
    "readout-type": "Ratio IC50",
    "test-value": 8.68
  },
  {
    "cpd-smiles": "NCCC(=O)N1Cc2ccccc2-c2nnn(-c3cc4ccc(O)cc4oc3=O)c2-c2ccccc21",
    "readout-type": "Ratio IC50",
    "test-value": 4.9
  },
  {
    "cpd-smiles": "NCCC(=O)N1Cc2ccccc2-c2nnn(-c3cc4cc(Cl)cc(Cl)c4oc3=O)c2-c2ccccc21",
    "readout-type": "Ratio IC50",
    "test-value": 18.84
  },
  {
    "cpd-smiles": "NCCC(=O)N1Cc2ccccc2-c2nnn(-c3cc4ccc(OCCBr)cc4oc3=O)c2-c2ccccc21",
    "readout-type": "Ratio IC50",
    "test-value": 6.52
  }
]

---

The following compounds are listed with their measured IC50 at 24 h values.
procedure-text: Cytotoxicity against human MRC5 cells after 24 hrs by MTT assay
readout-type: IC50 at 24 h (µM)

[
  {
    "cpd-smiles": "NCCC(=O)N1Cc2ccccc2-c2nnn(-c3cc4cc(Br)ccc4oc3=O)c2-c2ccccc21",
    "test-value": 100
  },
  {
    "cpd-smiles": "[N-]=[N+]=Nc1cc2cc(Br)ccc2oc1=O",
    "test-value": 70.4
  },
  {
    "cpd-smiles": "NCCC(=O)N1Cc2ccccc2-c2nnn(-c3cc4ccc(OCCBr)cc4oc3=O)c2-c2ccccc21",
    "test-value": 121
  },
  {
    "cpd-smiles": "NCCC(=O)N1Cc2ccccc2-c2nnn(-c3cc4ccccc4oc3=O)c2-c2ccccc21",
    "test-value": 110
  },
  {
    "cpd-smiles": "[N-]=[N+]=Nc1cc2ccccc2oc1=O",
    "test-value": 70.2
  },
  {
    "cpd-smiles": "COc1cccc2cc(-n3nnc4c3-c3ccccc3N(C(=O)CCN)Cc3ccccc3-4)c(=O)oc12",
    "test-value": 92.8
  },
  {
    "cpd-smiles": "NCCC(=O)N1Cc2ccccc2-c2nnn(-c3cc4ccc(O)cc4oc3=O)c2-c2ccccc21",
    "test-value": 90.2
  }
]
